# Lookup of reported IC50 keyed by entry
# assay target: PRMT5/MEP50 complex (Homo sapiens)
# Sequence (O14744 whole entry): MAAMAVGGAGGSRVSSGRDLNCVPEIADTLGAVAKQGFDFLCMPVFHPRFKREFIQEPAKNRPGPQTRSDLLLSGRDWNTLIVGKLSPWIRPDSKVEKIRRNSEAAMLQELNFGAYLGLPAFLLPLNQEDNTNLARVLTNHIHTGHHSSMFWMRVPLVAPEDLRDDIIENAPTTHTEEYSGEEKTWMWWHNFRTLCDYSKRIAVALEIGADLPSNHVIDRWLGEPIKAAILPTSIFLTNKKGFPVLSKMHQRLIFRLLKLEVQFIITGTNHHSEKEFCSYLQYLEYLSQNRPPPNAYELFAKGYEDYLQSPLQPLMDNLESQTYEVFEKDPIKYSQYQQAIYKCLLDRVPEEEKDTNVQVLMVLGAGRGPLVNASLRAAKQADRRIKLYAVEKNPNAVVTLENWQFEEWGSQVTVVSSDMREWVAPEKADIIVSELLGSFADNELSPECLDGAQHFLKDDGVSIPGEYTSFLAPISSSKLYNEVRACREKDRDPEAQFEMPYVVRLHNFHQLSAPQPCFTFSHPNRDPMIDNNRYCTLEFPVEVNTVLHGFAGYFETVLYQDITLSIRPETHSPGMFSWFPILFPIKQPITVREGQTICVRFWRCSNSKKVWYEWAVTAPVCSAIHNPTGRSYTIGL
# Sequence (Q9BQA1 whole entry, further chain): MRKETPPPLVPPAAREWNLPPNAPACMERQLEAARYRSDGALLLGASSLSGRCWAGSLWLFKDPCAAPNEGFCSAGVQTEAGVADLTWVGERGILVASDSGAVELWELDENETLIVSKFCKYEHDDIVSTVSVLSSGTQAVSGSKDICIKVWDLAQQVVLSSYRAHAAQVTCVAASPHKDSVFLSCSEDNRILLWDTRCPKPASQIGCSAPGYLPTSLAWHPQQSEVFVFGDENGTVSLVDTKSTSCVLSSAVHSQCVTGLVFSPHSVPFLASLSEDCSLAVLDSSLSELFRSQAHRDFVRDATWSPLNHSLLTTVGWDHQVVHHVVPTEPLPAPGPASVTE
# assay overview: Inhibition of recombinant human N-terminal FLAG-tagged PRMT5 (2 to end residues)/human N-terminal His-tagged MEP50 (2 to end residues) expressed in HEK293F cells using H4 peptide as substrate preincubated for 15 mins followed by substrate and [3H]SAM addition and measured after 1 hr by scintillation counting method
Form entry: value (µM) — number only.

> print(dat)
                                   compound  reading
1  O=C(NCC(O)CN1CCc2ccccc2C1)c1cc2c(s1)CCN(C1CCCCC1)C2 (stereo not drawn)     0.13
2  CN(C)c1ccc(C(=O)N2CCc3cc(C(=O)NC[C@H](O)CN4CCc5ccccc5C4)ccc3C2)cc1    0.011

Okay, next one:
Problem: Give IC50 for COc1ccc(C(=O)N2CCc3sc(C(=O)NCC(O)CN4CCc5ccccc5C4)cc3C2)cc1 (stereo not drawn)
Solution: 0.02

Reference source: ChEMBL document CHEMBL4411309
